Cited source: patent US7026443

Measurement target: HLA-A*1101 (purified HLA class I molecule) (human)
Value kind: relative binding ratio (IC50 of standard peptide / IC50 of test peptide)

The cases that follow already have their relative binding ratio (IC50 of standard peptide / IC50 of test peptide) on record.
SVYGDTLEK (modifications not checked) [HPV18 E6 84-92 peptide …]: 0.23
NTGLYNLLIR (modifications not checked) [HPV18 E6 95-104 peptide …]: 0.0013
VVYRDSIPH (modifications not checked) [HPV18 E6 54-62 peptide …]: 0.38

Lab note: TGLYNLLIR (modifications not checked) [HPV18 E6 96-104 peptide …] gave relative binding ratio (IC50 of standard peptide / IC50 of test peptide) of 0.0002
